Tested on: HOP-92 NSCLC
RUN DESCRIPTION: NCI tumour cell line growth inhibition, 48 h
Would you please tag the item 1.0 when its TGI is 20 µM or above, and 0.0 when it is below?

{"COMPOUND": "Cc1nc2c(o1)C(=Nc1ccccc1)c1ccccc1C2=O", "ASSIGNED CATEGORY": 1.0}
{"COMPOUND": "CCCCCCNC(=O)Oc1ccc(/C(=C(/C)Cc2ccc(OC)cc2)c2ccc(OCCCN(C)C)cc2)cc1", "ASSIGNED CATEGORY": 1.0}
{"COMPOUND": "Cc1cc(Nc2nc(-c3cccnc3)nc3ccccc23)n[nH]1", "ASSIGNED CATEGORY": 0.0}
{"COMPOUND": "O=[N+]([O-])c1ccc(C2CC(c3ccccc3Cl)=Nc3ccccc3S2=O)cc1 (configuration not stated)", "ASSIGNED CATEGORY": 1.0}
{"COMPOUND": "Cc1ccc(/C=C2\\CN(C(=O)C(Cl)Cl)C/C(=C\\c3ccc(C)cc3)C2=O)cc1", "ASSIGNED CATEGORY": 0.0}
{"COMPOUND": "O=C1C=C2SC3C[C@@]24CC1[N+]1=c2c4c(c(O)c4c2=C(C=N4)CC1)N3", "ASSIGNED CATEGORY": 1.0}
{"COMPOUND": "Fc1ccc(N=C/C=C/Nc2ccc(F)cc2)cc1", "ASSIGNED CATEGORY": 1.0}
{"COMPOUND": "CCCC(C)n1c(C)nc2c1C(=O)c1ccccc1C2=O (configuration not stated)", "ASSIGNED CATEGORY": 1.0}
{"COMPOUND": "COc1cc(CNc2cnc3cc(N)ccc3n2)cc(OC)c1OC", "ASSIGNED CATEGORY": 1.0}
{"COMPOUND": "COc1cc2oc(=O)cc(C)c2cc1O", "ASSIGNED CATEGORY": 1.0}
{"COMPOUND": "COP(=O)(OC)C(NC(=O)C(F)(F)F)(c1ccccc1)C(F)(F)F (configuration not stated)", "ASSIGNED CATEGORY": 1.0}
{"COMPOUND": "Cc1ccc(-c2c3c(nn2-c2ccc(S(N)(=O)=O)cc2)-c2ccccc2C3)cc1", "ASSIGNED CATEGORY": 1.0}
